procedure-summary: chemical genetic growth profiling, strain panel (AID 1159580);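 also: tested at 20 µM; growth read once vehicle control cultures reached saturation at 30 °C; 1 = growth at the plate median or of vehicle wells; lower values mean less growth of the strain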
condition-label: S. cerevisiae deletion strains, growth OD, locus YMR205C, strain PFK2, active compounds read low
Out of some 5,500 compounds screened, about 2,000 (36%) were called active. Another 18% or so got no clear call; they are omitted. This is one part of the list.
result-type: normalized growth
In your answer, state the number alone without any accompanying words.

Query string: Entry Nc1nc2c(c(=O)[nH]1)N(C=O)C(CNc1ccc(C(=O)N[C@@H](CCC(=O)O)C(=O)O)cc1)CN2 (stereo not given in full) : reported normalized growth = ?
Result string: 0.978

Query string: Another compound to check: Nc1nc(N)c2nc(CNc3ccc(C(=O)NC(CCC(=O)O)C(=O)O)cc3)cnc2n1 (stereo not given)
Result string: 0.965

Query string: Another compound to check: `O=C(O)c1cc(O)c(O)c(O)c1`
Result string: 1.06

Query string: Another compound to check: `CCOC(=O)c1ccc(N)cc1`
Result string: 1.01

Query string: Another compound to check: CC(=O)OCC(=O)[C@@]12OC(C)(C)O[C@@H]1CC1C3C[C@H](F)C4=CC(=O)C=C[C@]4(C)[C@@]3(F)[C@@H](O)C[C@@]12C (stereo not given in full)
Result string: 1.05

Query string: Another compound to check: CC1(C)C2CC(=O)O[C@@]3(C)C4=CC(=O)O[C@@H](c5ccoc5)[C@]4(C)CCC3[C@@]2(C)C=C[C@H]1O (stereo not given in full)
Result string: 1.04

Query string: Another compound to check: `O=C(O)c1cc(=O)c(O)c2c(O)c(O)ccc2c1`
Result string: 0.988

Query string: Another compound to check: `O=C(O)CNCP(=O)(O)O`
Result string: 1.05

Query string: Another compound to check: `NC(=O)c1cnccn1`
Result string: 0.998

Query string: Another compound to check: `Nc1nc2ncc(CNc3ccc(C(=O)N[C@@H](CCC(=O)O)C(=O)O)cc3)nc2c(=O)[nH]1`
Result string: 0.992
